# Test system: P388 leukemia ip, CD2F1 mice, survival T/C
# Experiment summary: NCI In Vivo Anticancer Drug Screen. Data for tumor model P388 Leukemia (intraperitoneal) in CD2F1 (CDF1) mice
# Measurement parameters: endpoint: median survival time; dose: 200.0 mg/kg/injection; schedule: Q01DX009 (ip); vehicle: saline with Tween-80; higher = longer survival
Toxic doses and inconclusive results are not listed.
Provide the recorded T/C for the entries that follow.

Q: Value lookup for T/C; key = `CCOC(=O)C(=O)Nc1ccccc1`
Ans: 97 % of control

Q: Another compound to look at: `O=C(NC(=O)C(F)(F)F)Nc1ccc(F)c(Cl)c1`
Ans: 104 % of control

Q: Another compound to look at: `CCCCCCCCCCCC(=O)N(CCOC(=O)c1ccco1)CCOC(=O)c1ccco1`
Ans: 87 % of control

Q: Another compound to look at: `Cc1ncc([N+](=O)[O-])n1CCOC(=O)c1ccc(F)cc1`
Ans: 97 % of control

Q: Another compound to look at: `O=c1[nH]c(=S)[nH]cc1Oc1ccc(Cl)cc1Cl`
Ans: 95 % of control

Q: Another compound to look at: `NC(=O)c1nnn2c1nc(N)c1ccccc12`
Ans: 91 % of control

Q: Another compound to look at: `CCCCCCCCOCC(=O)O`
Ans: 96 % of control

Q: Another compound to look at: `NNC(=O)c1ccc(Cl)cc1`
Ans: 86 % of control

Q: Another compound to look at: `Cc1ccc(NC(=O)NNC(=O)CNC(=O)Nc2n[nH]c(=S)s2)c(C)c1`
Ans: 91 % of control

Q: Another compound to look at: `CC(=C1N=c2ccccc2=N1)c1[nH]c(O)c2ccccc12`
Ans: 96 % of control

Q: Another compound to look at: `Cc1ccc(S(=O)(=O)O/N=C2/CCC(C)(C)c3ccccc32)cc1`
Ans: 100 % of control

Q: Another compound to look at: `Cc1ccc(NC(=O)Oc2c(C)cc(Cl)cc2C)c([N+](=O)[O-])c1`
Ans: 95 % of control

Q: Another compound to look at: `Nc1ccc2c(n1)NCC/C2=N\Nc1ccccc1`
Ans: 100 % of control

Q: Another compound to look at: `CC(=O)NS(=O)(=O)c1ccc(N)cc1`
Ans: 104 % of control

Q: Another compound to look at: `CCOC(=O)CC(=O)OC(C)(C)C`
Ans: 100 % of control

Q: Another compound to look at: `CC(=O)Nc1cc(C)ccc1O`
Ans: 100 % of control

Q: Another compound to look at: `O=C(NCCNC(=O)Nc1ccccc1S(=O)(=O)F)Nc1ccccc1S(=O)(=O)F`
Ans: 93 % of control

Q: Another compound to look at: `CCSC(=O)c1cc(C(=O)SCC)cc(C(C)(C)C)c1`
Ans: 124 % of control

Q: Another compound to look at: `CN(/C=C1\CCCCC1=O)c1ccccc1`
Ans: 113 % of control

Q: Another compound to look at: `O=C(O)CNC(=O)C(F)(F)F`
Ans: 95 % of control

Q: Another compound to look at: `CSCc1cc(Cl)ccc1N`
Ans: 97 % of control

Q: Another compound to look at: `O=C1CCSC(=S)N1c1ccc(Cl)c([N+](=O)[O-])c1`
Ans: 115 % of control

Q: Another compound to look at: `COc1cc(Cl)ccc1NC(=O)Oc1cc(C)c(I)cc1C`
Ans: 88 % of control

Q: Another compound to look at: `CCCCCCC(=O)/C=C/c1c(OC)cc(OC)cc1OC`
Ans: 97 % of control

Q: Another compound to look at: `O=C(Nc1cccc2ccccc12)NN1C(=O)CSC1=S`
Ans: 91 % of control

Q: Another compound to look at: CCC(O)(CC(=O)O)c1ccccc1 (configuration not stated)
Ans: 95 % of control

Q: Another compound to look at: `O=C(O)/C(=C\c1ccncc1)c1cccc2ccccc12`
Ans: 111 % of control

* * *

Provide the recorded T/C for the entries that follow.
# Tested on: P388 leukemia ip, CD2F1 mice, survival T/C
# Experiment summary: NCI In Vivo Anticancer Drug Screen. Data for tumor model P388 Leukemia (intraperitoneal) in CD2F1 (CDF1) mice
# Measurement parameters: endpoint: median survival time; dose: 100.0 mg/kg/injection; schedule: Q04DX002 (ip); vehicle: saline with Tween-80; higher = longer survival
Toxic doses and inconclusive results are not listed.

Q: Value lookup for T/C; key = `O=Cc1c(-c2ccccc2)sc2ccccc2c1=O`
Ans: 113 % of control

Q: Another compound to look at: C=CCC(C(=O)O)C1(C(=O)O)CCCCCC1 (stereo not drawn)
Ans: 94 % of control

Q: Another compound to look at: `c1ccc2c3c(ccc2c1)OCCOCCOc1ccc2ccccc2c1-c1c(ccc2ccccc12)OCCOCCOc1ccc2ccccc2c1-3`
Ans: 96 % of control

* * *

Provide the recorded T/C for the entries that follow.
# Tested on: P388 leukemia ip, CD2F1 mice, survival T/C
# Experiment summary: NCI In Vivo Anticancer Drug Screen. Data for tumor model P388 Leukemia (intraperitoneal) in CD2F1 (CDF1) mice
# Measurement parameters: endpoint: median survival time; dose: 60.0 mg/kg/injection; schedule: Q01DX005 (ip); vehicle: Klucel (hydroxypropylcellulose) (HPC); higher = longer survival
Toxic doses and inconclusive results are not listed.

Q: Entry `COc1ccc(C(=O)C(=O)c2ccccc2)cc1` , system P388 leukemia ip, CD2F1 mice, survival T/C: what T/C was measured?
Ans: 105 % of control

Q: Another compound to look at: CCC1CCCCN1Cc1ccccc1 (configuration not stated)
Ans: 108 % of control

Q: Another compound to look at: `CCC(=O)c1ccc(NC(=O)Nc2ncccn2)cc1`
Ans: 86 % of control

Q: Another compound to look at: `O=c1c2ccccc2oc2nc3ccccc3nc12`
Ans: 101 % of control

Q: Another compound to look at: `C/C(=N\N=C(N)N)c1cnc(N)nc1C`
Ans: 98 % of control

Q: Another compound to look at: `O=C1S/C(=C2\C(=O)N(CN3CCOCC3)c3ccccc32)C(=O)N1CN1CCOCC1`
Ans: 100 % of control

Q: Another compound to look at: `Cc1ccc(-c2nc(N)sc2N=Nc2ccc(Cl)cc2Cl)cc1`
Ans: 96 % of control

Q: Another compound to look at: `O=c1[nH]c2c([N+](=O)[O-])cc(Cl)cc2nc1/C=C(\O)c1cccnc1`
Ans: 99 % of control

Q: Another compound to look at: COc1ccc(C2c3cc4c(cc3OC3(N5CCCC5)CCCCC23)OCO4)c(OC)c1 (configuration not stated)
Ans: 87 % of control

Q: Another compound to look at: `Cn1c2ccccc2c2oc(-c3nn[nH]n3)cc(=O)c21`
Ans: 97 % of control

Q: Another compound to look at: `Cc1cc(NC(=O)CSCC(=O)O)no1`
Ans: 98 % of control

Q: Another compound to look at: O=C(N1CCCCC1Cc1ccccc1)C(Cl)(Cl)Cl (configuration not stated)
Ans: 101 % of control

* * *

Provide the recorded T/C for the entries that follow.
# Tested on: P388 leukemia ip, CD2F1 mice, survival T/C
# Experiment summary: NCI In Vivo Anticancer Drug Screen. Data for tumor model P388 Leukemia (intraperitoneal) in CD2F1 (CDF1) mice
# Measurement parameters: endpoint: median survival time; dose: 25.0 mg/kg/injection; schedule: Q01DX005 (ip); vehicle: saline with Tween-80; higher = longer survival
# Experimental: The antitumor activity of compounds was measured in mice bearing transplantable tumors. Survival or tumor size were measured and the results are expressed as the measurement made in the treated group (T) divided by the measurement made in the vehicle treated control group (C). The tumor model used in this assay is P388 Leukemia (intraperitoneal) in CD2F1 (CDF1) mice
Inconclusive results and toxic doses are left out.

Q: Value lookup for T/C; key = O=C1C2CCC(C2)C1CN1CCCCC1 (stereo unspecified)
Ans: 103 % of control

Q: Another molecule to look at: `CCCCN(CCCC)CN(CCCC)CCCC`
Ans: 112 % of control

Q: Another molecule to look at: `CCOC(=O)N1C=CC(=C2C(=C3C=CN(C(=O)OCC)C=C3)C(=C3C=CN(C(=O)OCC)C=C3)C2=C2C=CN(C(=O)OCC)C=C2)C=C1`
Ans: 100 % of control

Q: Another molecule to look at: `CCCCN(CCCC)CCNc1ccc(C)c2sc3ccc(Cl)cc3c(=O)c12`
Ans: 88 % of control

Q: Another molecule to look at: `COC(=O)Nc1nc2ccc(C(=O)C3CC3)cc2[nH]1`
Ans: 108 % of control

Q: Another molecule to look at: `COC(=O)c1ccc(CSc2ccccc2NC(=S)Nc2cccc(C(F)(F)F)c2)o1`
Ans: 98 % of control

Q: Another molecule to look at: `CSc1ccc(N2C(N)=NC(N)=NC2(C)C)cc1`
Ans: 100 % of control

Q: Another molecule to look at: `CC(C)=CCC/C(C)=C/CSC#N`
Ans: 102 % of control

Q: Another molecule to look at: `Cc1cccc(/C=N/Nc2cc(C)c3ccccc3n2)n1`
Ans: 93 % of control

Q: Another molecule to look at: `CN(C)CCCN1c2ccccc2Cc2ccccc21`
Ans: 108 % of control

Q: Another molecule to look at: `CCOC(=O)c1ccccc1N`
Ans: 100 % of control
